B1: BRF1 (parent)
chain: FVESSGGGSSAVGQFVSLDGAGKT

- Variants of: B1
- assay protocol: protein stability index of a GFP-peptide fusion (GPS, HEK-293T) (PSI 1-6); higher = more stable;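 further: lentivirally expressed fusions sorted by FACS into six bins by GFP to DsRed ratio, PSI derived from sequencing read proportions per bin multiplied by bin number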
- recorded conditions: c terminus: a fixed tail appended
Measured protein stability index by item

variant label | protein stability index
S17C | 1.83
E3I | 2.62
Q14E | 2.89
V12I | 2.09
S10E | 2.31
T24W | 2.24
E3T | 1.43
S10R | 1.98
G8S | 2.06
G6S | 2.7
S10L | 1.81
F15P | 3.14
G8D | 2.44
G7I | 1.81
S5M | 1.75
D19S | 1.59
S10T | 2.72
V16T | 2.38
T24K | 2.44
F15W | 2.06
D19V | 1.12
K23D | 2.68
G6A | 2.37
Q14N | 1.9
E3Q | 1.78
V12T | 1.86
G22W | 1.84
A21I | 1.96
G8H | 1.51
A11I | 2.41
S17R | 1.73
F15H | 3.01
Q14A | 1.73
V16N | 2.63
G20C | 2.41
S9R | 1.68
V2Q | 4.12
G20A | 2.41
S17I | 1.23
G7D | 3.52
T24S | 2.19
E3S | 1.33
D19F | 1.48
V16D | 2.96
K23Q | 2.01
S17Q | 2.81
G7E | 3.02
G8F | 1.69
A11T | 2.06
G20M | 1.76
F1H | 4.71
F15M | 2.22
L18N | 3.25
G13I | 1.02
S10N | 2.31
Q14H | 1.68
F1E | 5.04
G22T | 2.09
G6I | 1.49
A21K | 2.43
V16Q | 2.97
S4T | 2.29
G20S | 1.75
F15N | 2.83
L18I | 2.69
F1R | 5
V16Y | 1.75
A11S | 1.95
V12S | 2.43
K23I | 2.02
D19G | 1.69
F15G | 2.68
G7N | 2.26
G6T | 2.53
V12C | 2.37
V16A | 2.65
K23E | 2.56
V16F | 2.01
S4P | 2.67
G22A | 3
S9V | 2.58

From: the supplement of paper PMC10567573
